Taken from ChEMBL document CHEMBL6083270.

Known EC50 of a selection of compounds
Experiment: Cytotoxicity against mouse J774.A1 cells assessed as reduction in cell viability
Assay type: toxicity, cell-based

[
  {
    "COMPOUND": "Cc1ccc(-c2cc3c(c(OCC4CCCN(C)C4)c2)OCCN(C(=O)Cc2c(C)noc2C)C3)s1 (stereo unspecified)",
    "UNIT DESCRIPTOR": "µM",
    "RESULT COMPARATOR": "=",
    "EC50": 4.7
  },
  {
    "COMPOUND": "Cc1noc(C)c1CC(=O)N1CCOc2c(cc(-c3ccc(Cl)cc3)cc2OCC2CCCN(C)C2)C1 (stereo unspecified)",
    "UNIT DESCRIPTOR": "µM",
    "RESULT COMPARATOR": "=",
    "EC50": 5.5
  },
  {
    "COMPOUND": "Cc1noc(C)c1CC(=O)N1CCOc2c(cc(-c3cccc(Cl)c3)cc2OCC2CCCN(C)C2)C1 (stereo unspecified)",
    "UNIT DESCRIPTOR": "µM",
    "RESULT COMPARATOR": "=",
    "EC50": 3.2
  },
  {
    "COMPOUND": "Cc1noc(C)c1CC(=O)N1CCOc2c(cc(-c3cccc(F)c3)cc2OCC2CCCN(C)C2)C1 (stereo unspecified)",
    "UNIT DESCRIPTOR": "µM",
    "RESULT COMPARATOR": "=",
    "EC50": 11.5
  },
  {
    "COMPOUND": "Cc1noc(C)c1CC(=O)N1CCOc2c(cc(-c3ccccc3Cl)cc2OCC2CCCN(C)C2)C1 (stereo unspecified)",
    "UNIT DESCRIPTOR": "µM",
    "RESULT COMPARATOR": "=",
    "EC50": 14.7
  },
  {
    "COMPOUND": "CC1=NN(C)CC1c1cc2c(c(OCC3CCCN(C)C3)c1)OCCN(C(=O)Cc1c(C)noc1C)C2 (stereo unspecified)",
    "UNIT DESCRIPTOR": "µM",
    "RESULT COMPARATOR": ">",
    "EC50": 50
  },
  {
    "COMPOUND": "Cc1noc(C)c1CC(=O)N1CCOc2c(cc(-c3cccnc3)cc2OCC2CCCN(C)C2)C1 (stereo unspecified)",
    "UNIT DESCRIPTOR": "µM",
    "RESULT COMPARATOR": ">",
    "EC50": 50
  },
  {
    "COMPOUND": "Cc1noc(C)c1CC(=O)N1CCOc2c(cc(Br)cc2OCC2CCCN(C)C2)C1 (stereo unspecified)",
    "UNIT DESCRIPTOR": "µM",
    "RESULT COMPARATOR": ">",
    "EC50": 50
  },
  {
    "COMPOUND": "Cc1noc(C)c1CC(=O)N1CCOc2c(cc(-c3ccn(C)n3)cc2OCC2CCCN(C)C2)C1 (stereo unspecified)",
    "UNIT DESCRIPTOR": "µM",
    "RESULT COMPARATOR": ">",
    "EC50": 50
  },
  {
    "COMPOUND": "Cc1noc(C)c1CC(=O)N1CCOc2c(cc(CC3CC3)cc2OCC2CCCN(C)C2)C1 (stereo unspecified)",
    "UNIT DESCRIPTOR": "µM",
    "RESULT COMPARATOR": ">",
    "EC50": 50
  },
  {
    "COMPOUND": "Cc1noc(C)c1CC(=O)N1CCOc2c(cc(-c3ccnn3C)cc2OCC2CCCN(C)C2)C1 (stereo unspecified)",
    "UNIT DESCRIPTOR": "µM",
    "RESULT COMPARATOR": ">",
    "EC50": 50
  }
]
